- target or system: glycerol dehydrogenase (GDH) (Geobacillus stearothermophilus, UniProt P32816)
- Construct: crude, partially or highly purified (DEAE-cellulose, triazine dye-agarose, gel filtration)
- Sequence (P32816 whole entry): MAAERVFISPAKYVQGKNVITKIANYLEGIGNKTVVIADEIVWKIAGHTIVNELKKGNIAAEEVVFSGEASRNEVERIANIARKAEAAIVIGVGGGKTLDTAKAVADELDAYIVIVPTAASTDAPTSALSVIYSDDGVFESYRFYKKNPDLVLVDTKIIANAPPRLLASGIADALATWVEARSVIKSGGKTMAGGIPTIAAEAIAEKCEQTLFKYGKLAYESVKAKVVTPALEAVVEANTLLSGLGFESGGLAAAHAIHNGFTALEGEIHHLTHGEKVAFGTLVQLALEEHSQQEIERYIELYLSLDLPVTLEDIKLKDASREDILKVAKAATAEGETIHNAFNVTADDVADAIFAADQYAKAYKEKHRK
- assay summary: GDH assay against analogous substrates, activities (Vmax) relative to glycerol
- Assay type: biochemical, Bacillus stearothermophilus
- assay setup: 30° C., pH 8.5; substrate instead of glycerol
quantity measured: activity (Vmax) relative to glycerol (100%)

[1] OCCCO
[2] OCCC(O)S (centres unmarked)
Q. Recorded activity (Vmax) relative to glycerol (100%) values differ for 1 and 2 ; which one is higher? Reply briefly: the label of your chosen item.
A. 2

###

- target or system: glycerol dehydrogenase (GDH) (Geobacillus stearothermophilus, UniProt P32816)
- Construct: crude, partially or highly purified (DEAE-cellulose, triazine dye-agarose, gel filtration)
- assay summary: GDH assay against analogous substrates, activities (Vmax) relative to glycerol
- Assay type: biochemical, Bacillus stearothermophilus
- assay setup: 30° C., pH 8.5; substrate instead of glycerol
Each entry below carries its reported activity (Vmax) relative to glycerol (100%).

Below, 2 compounds whose answers are already recorded.
O=C(CO)CO [dihydroxyacetone]	< 10%
O=C(O)C(O)CO (stereo not drawn) [glyceric acid]	< 10%

Q. Enter reported activity (Vmax) relative to glycerol (100%) observed with glycerol dehydrogenase (GDH) (Geobacillus stearothermophilus, UniProt P32816) for CC(O)CO (stereo not drawn) [propane1, 2 diol]
A. 165%

Just for reference, patent US4342827A is where these values come from.
